The measured values listed here are drawn from patent US6291640A.

studyTarget: HCMV No protease (Human cytomegalovirus)
Construct: at a position located near the center of the precursor (R-site) to excise the catalytic domain (No)
Sequence (P16753 1-256): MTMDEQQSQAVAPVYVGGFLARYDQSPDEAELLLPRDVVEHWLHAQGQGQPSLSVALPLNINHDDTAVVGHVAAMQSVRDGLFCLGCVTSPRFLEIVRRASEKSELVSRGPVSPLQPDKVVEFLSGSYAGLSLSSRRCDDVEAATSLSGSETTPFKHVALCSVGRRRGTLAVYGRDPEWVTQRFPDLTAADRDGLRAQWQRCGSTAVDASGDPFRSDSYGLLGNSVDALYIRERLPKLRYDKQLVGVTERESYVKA
protocolSummary: biochemical
measurementSetup: inhibitor pre-incubated 5 hr at 30° C. with enzyme, fluorogenic substrate; read-out: IC50
quantityKind: pIC50
Give bare numbers, as −log10 of the molar value.

INSERT INTO results (compound, datavalue) VALUES
  ('CC(NC(=O)[C@H](CC(=O)NC(C)(C)C)NC(=O)[C@@H](NC(=O)CC(C)(C)C)C(C)(C)C)C(=O)C(F)(F)C(F)(F)F (stereo partly shown) [Compound 306]', 6.30);

Below are some compounds; for each one, tell me its pIC50.
1. CC(NC(=O)[C@H](CC(=O)N(C)C)NC(=O)[C@@H](NC(=O)[C@@H](NC(=O)OC(C)(C)C)C(C)C)C(C)C)C(=O)C(=O)NCCc1ccccc1 (stereo partly shown) [Compound 412]
2. CC(NC(=O)[C@H](CC(=O)N(C)C)NC(=O)[C@@H](NC(=O)[C@@H](NC(=O)OC(C)(C)C)C(C)C)C(C)C)C(=O)C(=O)NCC1CCCCC1 (stereo partly shown) [Compound 413]

6.07
5.36
